target-system: UniProt P37288
Sequence (P37288 whole entry): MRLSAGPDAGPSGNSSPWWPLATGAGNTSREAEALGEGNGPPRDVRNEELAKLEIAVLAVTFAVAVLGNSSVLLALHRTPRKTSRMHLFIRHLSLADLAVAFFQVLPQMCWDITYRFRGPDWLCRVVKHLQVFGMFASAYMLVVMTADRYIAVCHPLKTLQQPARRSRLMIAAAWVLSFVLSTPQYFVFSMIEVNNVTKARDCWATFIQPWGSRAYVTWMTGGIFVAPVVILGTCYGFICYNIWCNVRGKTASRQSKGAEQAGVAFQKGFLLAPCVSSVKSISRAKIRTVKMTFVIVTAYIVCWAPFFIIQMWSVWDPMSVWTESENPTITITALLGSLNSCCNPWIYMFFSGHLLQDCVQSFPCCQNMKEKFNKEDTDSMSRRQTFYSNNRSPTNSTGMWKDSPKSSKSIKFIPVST
experiment-description: Cellular in vitro assay for determining vasopressin receptor activity, V1a receptor cell line (CHO, aequorin luminescence)
setup-conditions: CHO cell line transfected with human V1a receptor; [Arg]-vasopressin at EC50 concentration; read-out: IC50 hV1a

{"compound": "O=C(Nc1ncccc1-n1cnc(Cn2nc(-c3ccc(Cl)cc3)n(C[C@H](O)C(F)(F)F)c2=O)n1)OCC(F)(F)F [Example 167]", "IC50": "19.3 nM"}
{"compound": "O=C(c1ncccc1-n1cnc(Cn2nc(-c3ccc(Cl)cc3)n(C[C@H](O)C(F)(F)F)c2=O)n1)N1CCC(C(F)(F)F)C1 (mixture of isomers) [Example 449]", "IC50": "200 nM"}
{"compound": "CC(=O)Nc1ncccc1-n1cnc(Cn2nc(-c3ccc(Cl)cc3)n(C[C@H](O)C(F)(F)F)c2=O)n1 [Example 73]", "IC50": "53 nM"}
{"compound": "O=C(NCC(O)CO)c1ccccc1-n1cnc(Cn2nc(-c3ccc(Cl)cc3)n(C[C@H](O)C(F)(F)F)c2=O)n1 (mixture of isomers) [Example 297]", "IC50": "5.05 nM"}
{"compound": "O=C(Nc1ncccc1-n1cnc(Cn2nc(-c3ccc(Cl)cc3)n(C[C@H](O)C(F)(F)F)c2=O)n1)C1(C(F)(F)F)CC1 [Example 81]", "IC50": "2.05 nM"}
{"compound": "O=C(NC1CC1)c1cccc(Cl)c1-n1cnc(Cn2nc(-c3ccc(Cl)cc3)n(C[C@H](O)C(F)(F)F)c2=O)n1 [Example 369]", "IC50": "2.8 nM"}
